- Test Target: purified RT from HIV-1 (Human immunodeficiency virus type 1 group M subtype B)

| Compound | IC50 / µM |
| --- | --- |
| Cc1cccc(C23SCCN2C(=O)c2cccnc23)n1 (centres unmarked) | 6.6 |
| O=C1c2cccnc2C2(c3ccccn3)SCCN12 (centres unmarked) | 23 |
| O=C1c2cccnc2C2(c3ccccc3)SCCN12 (centres unmarked) | 3.3 |
| Cc1cc(C)cc(C23SCCN2C(=O)c2nccnc23)c1 (centres unmarked) | 40 |
| Cc1ccnc(C23SCCN2C(=O)c2cccnc23)c1 (centres unmarked) | 4.6 |
| O=C1c2ccncc2C2(c3ccccc3)SCCN12 (centres unmarked) | 17 |
| Cc1cccc(C23SCCN2C(=O)c2cccnc23)c1 (centres unmarked) | 4 |
| Cc1cc(C)nc(C23SCCN2C(=O)c2cccnc23)c1 (centres unmarked) | 3.9 |
